# System: T1, Cynomolgus monkey CD98 ECD with C-terminal His-tag (cynomolgus monkey, UniProt P08195 105-529 (human entry))
# T1 construct: also called cyCD98 ECD; recombinant cynomolgus monkey CD98 extracellular domain
# T1 chain: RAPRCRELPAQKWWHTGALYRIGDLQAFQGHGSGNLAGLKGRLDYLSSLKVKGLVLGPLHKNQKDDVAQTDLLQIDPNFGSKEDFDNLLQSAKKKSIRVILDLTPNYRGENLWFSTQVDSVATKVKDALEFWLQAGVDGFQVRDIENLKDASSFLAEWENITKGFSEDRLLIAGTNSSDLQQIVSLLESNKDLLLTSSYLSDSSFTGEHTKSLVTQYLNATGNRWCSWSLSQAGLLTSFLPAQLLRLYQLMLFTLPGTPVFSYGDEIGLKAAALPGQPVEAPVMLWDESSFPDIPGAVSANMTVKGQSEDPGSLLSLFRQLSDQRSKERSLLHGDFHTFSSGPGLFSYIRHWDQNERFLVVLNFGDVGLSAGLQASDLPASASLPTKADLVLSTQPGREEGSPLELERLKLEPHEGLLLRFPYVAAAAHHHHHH
# Method description: SPR Biacore, anti-Fc capture of mAb, CD98 ECD analyte
Readout: koff
Write the numeric value and follow it with the unit.

Anti-CD98 rat hybridoma antibody Ab6 (antibody, V domains shown) VH: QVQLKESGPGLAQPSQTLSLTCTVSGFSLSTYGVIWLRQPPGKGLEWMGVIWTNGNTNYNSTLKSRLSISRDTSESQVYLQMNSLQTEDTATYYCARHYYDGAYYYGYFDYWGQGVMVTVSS VL: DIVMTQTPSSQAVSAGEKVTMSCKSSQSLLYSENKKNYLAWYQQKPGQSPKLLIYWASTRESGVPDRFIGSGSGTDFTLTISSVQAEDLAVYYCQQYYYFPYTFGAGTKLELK : 0.00037 s⁻¹

Now turn to the next binder.
Tell me the measured koff of Anti-CD98 rat hybridoma antibody Ab15 (antibody, V domains shown) VH: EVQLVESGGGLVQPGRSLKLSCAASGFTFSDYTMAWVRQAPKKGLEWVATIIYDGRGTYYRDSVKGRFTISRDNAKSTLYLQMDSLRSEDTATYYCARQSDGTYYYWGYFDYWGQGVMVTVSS VL: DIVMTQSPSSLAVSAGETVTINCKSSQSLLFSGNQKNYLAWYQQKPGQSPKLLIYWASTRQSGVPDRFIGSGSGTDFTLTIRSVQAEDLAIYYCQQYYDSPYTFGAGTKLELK , please.
9.6e-05 s⁻¹

The reported numbers originate from patent US20200147235A1.
